Origin of the recorded values: patent US20250368648A1

Measured pIC50 values are reported for all entries that follow.
# testedOn: UniProt P36888
# Sequence (P36888 27-993): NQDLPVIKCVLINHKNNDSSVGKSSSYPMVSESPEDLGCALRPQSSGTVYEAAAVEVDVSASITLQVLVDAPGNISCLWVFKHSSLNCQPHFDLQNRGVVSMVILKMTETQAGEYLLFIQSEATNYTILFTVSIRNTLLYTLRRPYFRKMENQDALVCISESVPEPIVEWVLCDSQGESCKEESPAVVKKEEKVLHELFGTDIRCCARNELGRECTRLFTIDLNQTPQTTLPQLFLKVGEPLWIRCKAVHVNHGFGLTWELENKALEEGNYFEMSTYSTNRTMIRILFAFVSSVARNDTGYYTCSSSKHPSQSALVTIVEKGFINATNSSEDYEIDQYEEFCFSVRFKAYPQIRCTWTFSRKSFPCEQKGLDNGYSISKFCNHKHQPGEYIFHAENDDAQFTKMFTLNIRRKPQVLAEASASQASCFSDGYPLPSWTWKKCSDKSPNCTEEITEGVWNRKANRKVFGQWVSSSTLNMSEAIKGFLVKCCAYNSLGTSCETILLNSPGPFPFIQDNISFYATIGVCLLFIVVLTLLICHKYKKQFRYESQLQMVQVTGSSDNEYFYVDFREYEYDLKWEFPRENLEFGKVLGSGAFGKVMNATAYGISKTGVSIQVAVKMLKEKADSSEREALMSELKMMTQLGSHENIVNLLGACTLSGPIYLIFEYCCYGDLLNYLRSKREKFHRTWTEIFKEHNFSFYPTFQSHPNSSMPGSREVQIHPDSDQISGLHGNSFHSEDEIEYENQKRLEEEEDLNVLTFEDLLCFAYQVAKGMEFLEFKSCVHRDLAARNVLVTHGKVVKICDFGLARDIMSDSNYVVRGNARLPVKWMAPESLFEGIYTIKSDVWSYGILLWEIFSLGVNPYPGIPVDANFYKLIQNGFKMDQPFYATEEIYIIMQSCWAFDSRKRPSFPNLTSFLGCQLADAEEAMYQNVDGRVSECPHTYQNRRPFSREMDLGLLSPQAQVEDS
# test: RBC HotSpot Kinase Assay, FLT3
# Type: biochemical
# Design: purchased RBC (Reaction Biology) HotSpot assay
# conditionContext: HotSpot functional assay, isolated kinase enzyme, 33P-ATP
pIC50: −log10 of the molar value.
endpointLabel: pIC50

- compound: "COc1cc2ncc(-c3nc(N[C@@H]4CCCNC4)c(F)cc3F)n2nc1C1CC(C)(C)C1"
  limitOperator: ">"
  observedValue: 9.30
- compound: "COc1cc2ncc(-c3ccc(C)c(N[C@@H]4CCCNC4)n3)n2nc1C1CC1 [Compound 41a]"
  limitOperator: "="
  observedValue: 6.98
- compound: "COc1cc2ncc(-c3nc(N[C@H]4CNC[C@@H]4F)c(F)cc3F)n2nc1N1CCCS1(=O)=O [Compound 69a]"
  limitOperator: ">"
  observedValue: 9.30
- compound: "COc1cc2ncc(-c3nc(N[C@H]4CNCC[C@@H]4F)c(C)cc3C)n2nc1C1CC1 [Compound 64a]"
  limitOperator: "="
  observedValue: 6.09
